Tested on: CD8F1 mice, subcutaneous mammary adenocarcinoma, T/C%
Test: NCI In Vivo Anticancer Drug Screen. Data for tumor model Mammary Adenocarcinoma CD8F1 (subcutaneous) in CD8F1
Conditions: endpoint: median tumor weight change; dose: 125.0 mg/kg/injection; schedule: Q01DX001 (ip); vehicle: saline; higher = larger tumour
Inconclusive results are not listed.
Observed Property: T/C

| Compound | Subject Of Test | Measurement |
| --- | --- | --- |
| CCCCCC[C@@H](O)C/C=C\CCCCCCCC(=O)OCCO | CD8F1 mice, subcutaneous mammary adenocarcinoma, T/C% | 96 % of control |
| N=C1CCCS1 | CD8F1 mice, subcutaneous mammary adenocarcinoma, T/C% | 93 % of control |
| NC(CCC(=O)NC(CS)C(=O)NCC(=O)O)C(=O)O (stereo not given) | CD8F1 mice, subcutaneous mammary adenocarcinoma, T/C% | 74 % of control |
| COC(=O)Nc1nc2ccc(C3(c4ccc(F)cc4)OCCO3)cc2[nH]1 | CD8F1 mice, subcutaneous mammary adenocarcinoma, T/C% | 99 % of control |
| CN(C)CCC(=O)C(=Cc1ccc(O)cc1)C(=O)CCN(C)C | CD8F1 mice, subcutaneous mammary adenocarcinoma, T/C% | 62 % of control |
| C=CC(=O)NCNC(=O)C=C | CD8F1 mice, subcutaneous mammary adenocarcinoma, T/C% | 46 % of control |
| CC1=CC(=NN=c2cc(C)n([O-])c(C)c2)C=C(C)[N+]1=O | CD8F1 mice, subcutaneous mammary adenocarcinoma, T/C% | 55 % of control |
| CC1=NN(c2cccc(S(=O)(=O)O)c2)C(=O)C1N=Nc1cc(Cl)cc(S(=O)(=O)O)c1O.CC1=NN(c2cccc(S(=O)(=O)O)c2)C(=O)C1N=Nc1cc(Cl)cc(S(=O)(=O)O)c1O.[Cr] (stereo not given) | CD8F1 mice, subcutaneous mammary adenocarcinoma, T/C% | 245 % of control |
| Oc1ccc(CCl)c2cccnc12 | CD8F1 mice, subcutaneous mammary adenocarcinoma, T/C% | 78 % of control |

Consider the additional compound presented here.
Problem: Dear colleague, I am looking for the recorded T/C of the following compound: O=C(C1CO1)C(Cl)(Cl)Cl (stereo not given)
Result: 34 % of control

* * *

Can you tell me T/C for the items I'm about to list?
System: CD8F1 mice, subcutaneous mammary adenocarcinoma, T/C%
Experiment: NCI In Vivo Anticancer Drug Screen. Data for tumor model Mammary Adenocarcinoma CD8F1 (subcutaneous) in CD8F1
Details: endpoint: median tumor weight change; dose: 250.0 mg/kg/injection; schedule: Q01DX001 (ip); vehicle: saline with Tween-80; higher = larger tumour
Results filed as inconclusive are left out.

| Compound | Subject Of Test | Observed Property | Measurement |
| --- | --- | --- | --- |
| CC(/C=C/c1ccccc1)=Nc1ccccc1 | CD8F1 mice, subcutaneous mammary adenocarcinoma, T/C% | T/C | 97 % of control |
| C=COC(=O)C(Cc1ccccc1)NC(=O)OCc1ccccc1 (stereo unspecified) | CD8F1 mice, subcutaneous mammary adenocarcinoma, T/C% | T/C | 46 % of control |
| O=C(c1cccnc1)c1cc(-c2ccccn2)c(=O)n2ccccc12 | CD8F1 mice, subcutaneous mammary adenocarcinoma, T/C% | T/C | 77 % of control |
| O=C1c2ccccc2C(=O)c2c3c(cc(NCCNCCO)c21)N(CCO)CCN3 | CD8F1 mice, subcutaneous mammary adenocarcinoma, T/C% | T/C | 91 % of control |

Below is a list of compounds. For each, state its recorded T/C.
1. CC1(C)CC2(C)OC2C2(C1)N=NC(=Nc1ccccc1)O2 (stereo unspecified)
2. O=C1NC(=O)C2C3C=CC(C12)C1C2C(=O)NC(=O)C2C31 (stereo unspecified)

Result:
64 % of control
-25 % of control

* * *

Tested on: CD8F1 mice, subcutaneous mammary adenocarcinoma, T/C%
Test: NCI In Vivo Anticancer Drug Screen. Data for tumor model Mammary Adenocarcinoma CD8F1 (subcutaneous) in CD8F1
Details: endpoint: median tumor weight (est.); dose: 25.0 mg/kg/injection; schedule: Q07DX005 (ip); vehicle: water; higher = larger tumour
Results filed as inconclusive are left out.
Observed Property: T/C

| Compound | T/C |
| --- | --- |
| Nc1n[n+](-c2ccc(Cl)cc2)no1 | 88 % of control |
| Oc1cc2c3c(c1)c1cc4c(cc1c[n+]3CC2)OCO4 | 85 % of control |
| CN1N=C(N)c2cn(C3OC(COP(=O)(O)O)C(O)C3O)c3ncnc1c23 (stereo not given) | 54 % of control |
| CNc1nc(N(C)C)nc(N(C)C)n1 | 94 % of control |

Consider the additional compound presented here.
Problem: Dear colleague, I am looking for the recorded T/C of the following compound: `CC/C(=C(/CC)c1ccc(O)cc1)c1ccc(O)cc1`
Result: 66 % of control

* * *

Test system: CD8F1 mice, subcutaneous mammary adenocarcinoma, T/C%
Test: NCI In Vivo Anticancer Drug Screen. Data for tumor model Mammary Adenocarcinoma CD8F1 (subcutaneous) in CD8F1
Settings: endpoint: median tumor weight (est.); dose: 2.0 mg/kg/injection; schedule: Q07DX005 (ip); vehicle: saline; higher = larger tumour
Records with an inconclusive call do not appear.
Observed Property: T/C

| Compound | Subject Of Test | Measurement |
| --- | --- | --- |
| Cc1c(N)nc([C@H](CC(N)=O)NC[C@H](N)C(N)=O)nc1C(=O)N[C@H](C(=O)N[C@H](C)[C@@H](O)[C@H](C)C(=O)N[C@H](C(=O)NCCc1nc(-c2nc(C(=O)NCCC[S+](C)C)cs2)cs1)[C@@H](C)O)C(OC1OC(CO)C(O)C(O)C1OC1OC(CO)C(O)C(OC(N)=O)C1O)c1cnc[nH]1 (some centres not stated) | CD8F1 mice, subcutaneous mammary adenocarcinoma, T/C% | 25 % of control |

Below is a list of compounds. For each, state its recorded T/C.
1. COC(C(=O)C(O)C(C)O)C1Cc2cc3cc(OC4CC(OC(C)=O)C(OC5CC(O)C(OC)C(C)O5)C(C)O4)cc(O)c3c(O)c2C(=O)C1OC1CC(OC2CC(OC3CC(C)(O)C(OC(=O)C(C)C)C(C)O3)C(O)C(C)O2)C(O)C(C)O1 (configuration not stated)
2. O=C1c2ccccc2C(=O)c2c(NCCNCCO)ccc(NCCNCCO)c21

Result:
1: 34 % of control; 2: 74 % of control

* * *

Test system: CD8F1 mice, subcutaneous mammary adenocarcinoma, T/C%
Assay: NCI In Vivo Anticancer Drug Screen. Data for tumor model Mammary Adenocarcinoma CD8F1 (subcutaneous) in CD8F1
Conditions: endpoint: median tumor weight change; dose: 1000.0 mg/kg/injection; schedule: Q01DX001 (ip); vehicle: saline; higher = larger tumour
Records with an inconclusive call do not appear.
Can you tell me T/C for the items I'm about to list?

Example cases with answers are listed next.
| Molecule | T/C |
| --- | --- |
| C=C(NC(=O)C(=C)NC(=O)c1csc(C2=NC3c4csc(n4)C4NC(=O)c5csc(n5)C(C(C)(O)C(C)O)NC(=O)C5CSC(=N5)/C(=C/C)NC(=O)C(C(C)O)NC(=O)c5csc(n5)C3(CC2)NC(=O)C(C)NC(=O)C(=C)NC(=O)C(=C)NC(=O)C(C(C)C)NC2C=Cc3c(C(C)O)cc(nc3C2O)C(=O)OC4C)n1)C(N)=O (centres undefined) | 86 % of control |
| CC(Cc1ccc(O)c(O)c1)C(C)Cc1ccc(O)c(O)c1 (centres undefined) | 57 % of control |
| CC(C)C(N)C(=O)Nc1nncs1 (centres undefined) | 81 % of control |

Problem: Give CD8F1 mice, subcutaneous mammary adenocarcinoma, T/C% T/C for `O=C1OC(=O)[C@H]2[C@@H]1[C@H]1C=C[C@@H]2OC1=O`
Result: 95 % of control

* * *

Can you tell me T/C for the items I'm about to list?
Test system: CD8F1 mice, subcutaneous mammary adenocarcinoma, T/C%
Experiment: NCI In Vivo Anticancer Drug Screen. Data for tumor model Mammary Adenocarcinoma CD8F1 (subcutaneous) in CD8F1
Settings: endpoint: median tumor weight (est.); dose: 12.5 mg/kg/injection; schedule: Q07DX005 (ip); vehicle: suspension in saline; higher = larger tumour
Inconclusive results are not listed.

Example cases with answers are listed next.
| Compound | Observed Property | Measurement |
| --- | --- | --- |
| O=CC(=O)c1ccc(O)cc1 | T/C | 102 % of control |
| [I][Hg][CH2]C1COC([CH2][Hg][I])CO1 (centres undefined) | T/C | 167 % of control |
| Oc1ccccc1C=NCCC[N-]CCCN=Cc1ccccc1O.[Co] | T/C | 162 % of control |
| COC1N(C2CC(O)C(CO)O2)C(=O)NC(=O)C1(F)Br (centres undefined) | T/C | 113 % of control |
| Nc1cc2[nH]cnc2c(=O)[nH]1 | T/C | 56 % of control |

Below is a list of compounds. For each, state its recorded T/C.
1. CN(N=O)C(N)=O
2. c1cc(-c2cc3ccc(C4=NCCN4)cc3[nH]2)ccc1C1=NCCN1
3. c1ccc(CN2CCOC2)cc1

Result:
104 % of control
60 % of control
51 % of control

Problem: Dear colleague, I am looking for the recorded T/C of the following compound: Nc1nc(F)nc2c1ncn2C1OC(COP(=O)(O)O)C(O)C1O (centres undefined)
Result: 69 % of control
